Target: MurF (UniProt P11880)
Sequence (whole entry): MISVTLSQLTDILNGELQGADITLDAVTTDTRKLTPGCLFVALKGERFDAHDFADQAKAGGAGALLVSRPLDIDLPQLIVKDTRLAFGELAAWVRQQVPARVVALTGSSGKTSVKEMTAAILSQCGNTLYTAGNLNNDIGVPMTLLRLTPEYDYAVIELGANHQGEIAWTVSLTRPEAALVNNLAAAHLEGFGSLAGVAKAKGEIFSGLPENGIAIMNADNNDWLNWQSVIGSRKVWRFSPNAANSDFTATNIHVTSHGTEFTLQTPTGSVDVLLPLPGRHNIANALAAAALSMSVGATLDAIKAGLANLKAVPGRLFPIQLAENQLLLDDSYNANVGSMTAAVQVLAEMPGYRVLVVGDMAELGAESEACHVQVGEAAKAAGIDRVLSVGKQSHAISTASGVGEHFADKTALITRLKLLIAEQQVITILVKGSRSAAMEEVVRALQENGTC
Assay: relative enzymatic activity vs untreated control (fraction); higher = less inhibition
Conditions: 100 µM; incubation time: 2 h at 37 C
Below: a set of entries, each annotated with reported relative enzymatic activity.
Measured Quantity: relative enzymatic activity

CCC(C)C1NC(=O)C(CCNCS(=O)(=O)[O-])NC(=O)C(NC(=O)C(CCNCS(=O)(=O)[O-])NC(=O)C(NC(=O)C(CCNCS(=O)(=O)[O-])NC(=O)CCCCC(C)C)C(C)O)CCNC(=O)C(C(C)O)NC(=O)C(CCNCS(=O)(=O)[O-])NC(=O)C(CCNCS(=O)(=O)[O-])NC(=O)C(C(C)CC)NC1=O.[Na+].[Na+].[Na+].[Na+].[Na+] (centres undefined)	1.03
Cn1cc(-c2[nH]c3cc(NC(=O)[C@H](N)C4CCCCC4)cc4c3c2C=NNC4=O)cn1	1.13
CC(C)(O/N=C(\C(=O)N[C@@H]1C(=O)N2C(C(=O)O)=C(C[N+]3(CCNC(=O)c4ccc(O)c(O)c4Cl)CCCC3)CS[C@H]12)c1csc(N)n1)C(=O)O	1.01
CC[C@H](C)C[C@H](C)CCCCCCCCC(=O)N[C@H]1C[C@@H](O)[C@@H](NCCN)NC(=O)[C@@H]2[C@@H](O)CCN2C(=O)[C@H]([C@H](O)CCN)NC(=O)[C@H]([C@H](O)[C@@H](O)c2ccc(O)cc2)NC(=O)[C@@H]2C[C@@H](O)CN2C(=O)[C@H]([C@@H](C)O)NC1=O	1.39
